Catalogue of binders with associated Off-Rate Ratio to that of EM0005-87c
target: human PD-L1/His fusion protein (human, UniProt Q9NZQ7 19-239); assay: BLI off-rate; test group 2
Sequence (Q9NZQ7 19-239 limits assumed): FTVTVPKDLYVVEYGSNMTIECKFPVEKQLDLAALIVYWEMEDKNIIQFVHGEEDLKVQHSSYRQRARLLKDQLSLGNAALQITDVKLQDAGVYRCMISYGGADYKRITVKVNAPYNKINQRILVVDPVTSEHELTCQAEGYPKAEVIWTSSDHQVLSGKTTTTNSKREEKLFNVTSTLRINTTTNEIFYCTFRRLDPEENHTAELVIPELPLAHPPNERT
Use % as the unit, but write only the number.

Past entries and their recorded results:
binder	test readout	measured number
HuEM0005-87-8 (antibody, human IgG1, V domains shown) VH: EVQLVQSGAEVKKPGASVKVSCKASGYTFTDYYINWVRQAPGQGLEWIGETIPNTGGTTYNQKFKARVTLTVDKSTSTVYMELSSLRSEDTAVYYCARYQSGSPFAYWGQGTTVTVSS VL: EIVMTQSPATLSVSPGERATLSCKASQNVGTAVAWYQQKPGQAPRLLIYSASNRYTGIPARFSGSGSGTEFTLTISSLQSEDFAVYYCQQHYSTPYTFGGGTKLEIK	Off-Rate Ratio to that of EM0005-87c	81
HuEM0005-87-7 (antibody, human IgG1, V domains shown) VH: EVQLVQSGAEVKKPGASVKVSCKASGYTFTDYYINWVRQAPGQGLEWMGETIPNTGGTTYNQKFKARVTLTVDTSTSTVYMELSSLRSEDTAVYYCARYQSGSPFAYWGQGTTVTVSS VL: EIVMTQSPATLSVSPGERATLSCKASQNVGTAVAWYQQKPGQAPRLLIYSASNRYTGIPARFSGSGSGTEFTLTISSLQSEDFAVYYCQQHYSTPYTFGGGTKLEIK	Off-Rate Ratio to that of EM0005-87c	68

Now for a further binder.
[Q] What Off-Rate Ratio to that of EM0005-87c value was documented for this binder, HuEM0005-87-12 (antibody, human IgG1, V domains shown) VH: EVQLVQSGAEVKKPGASVKVSCKASGYTFTDYYINWVRQAPGQGLEWMGETIPNTGGTTYNQKFKARVTLTVDTSTSTVYMELSSLRSEDTAVYYCARYQSGSPFAYWGQGTTVTVSS VL: EIVMTQSPATLSVSPGERATLSCKASQNVGTAVAWYQQKPGQAPRLLIYSASNRYTGVPARFSGSGSGTEFTLTISSLQSEDFAVYYCQQHYSTPYTFGGGTKLEIK ?
[A] 77

Cited source: patent US20230242675A1
